# EXPERIMENTAL_SYSTEM: MAPKAPK2 Recombinant Human Protein (Homo sapiens)
# PROTOCOL: MK2 kinase assay (Z'-LYTE kinase assay kit)
# MEASUREMENT_CONDITIONS: inhibition of MK2 biochemical activity; 90 min incubation at room temperature
Entries and their IC50

>  <COMPOUND>
N#Cc1ccc(-c2cc3n(c2)Cc2cc(N4CC(C5(CO)COC(=O)N5)CC4=O)ccc2-n2ccnc2-3)cc1 (stereo not shown)

>  <IC50>
50 to 100 nM

$$$$
>  <COMPOUND>
N#Cc1ccc(-c2cc3n(c2)Cc2cc(N4CC(=O)N(CC5CNC5)C4=O)ccc2-n2ccnc2-3)cc1

>  <IC50>
< 50 nM

$$$$

Answer with the recorded IC50 for the compound listed here: `CN(C)C[C@H]1CC(=O)N(c2ccc3c(c2)Cn2cc(-c4ccc(C#N)cc4)cc2-c2nccn2-3)C1`
< 50 nM

Answer with the recorded IC50 for the compound listed here: `CC(C)(N)[C@H]1CC(=O)N(c2ccc3c(c2)Cn2cc(-c4ccc(C#N)cc4)cc2-c2nccn2-3)C1`
< 50 nM

Answer with the recorded IC50 for the compound listed here: `CN(C)[C@@H]1CCCN(C(=O)c2ccc3c(c2)Cn2cc(-c4ccc(C#N)cc4)cc2-c2nccn2-3)C1`
50 to 100 nM

Answer with the recorded IC50 for the compound listed here: N#Cc1ccc(-c2cc3n(c2)Cc2cc(N4C[C@@H](C5(N)CC5)CC4=O)ccc2-n2ccnc2-3)cc1 (stereo in doubt) [Example 49]
< 50 nM

Answer with the recorded IC50 for the compound listed here: N#Cc1ccc(-c2cc3n(c2)Cc2cc(N4C[C@H]5CNC[C@H]5C4=O)ccc2-n2ccnc2-3)cc1 (relative stereo)
50 to 100 nM

###

# EXPERIMENTAL_SYSTEM: MAPKAPK2 Recombinant Human Protein (Homo sapiens, UniProt P49137)
# Sequence (P49137 whole entry): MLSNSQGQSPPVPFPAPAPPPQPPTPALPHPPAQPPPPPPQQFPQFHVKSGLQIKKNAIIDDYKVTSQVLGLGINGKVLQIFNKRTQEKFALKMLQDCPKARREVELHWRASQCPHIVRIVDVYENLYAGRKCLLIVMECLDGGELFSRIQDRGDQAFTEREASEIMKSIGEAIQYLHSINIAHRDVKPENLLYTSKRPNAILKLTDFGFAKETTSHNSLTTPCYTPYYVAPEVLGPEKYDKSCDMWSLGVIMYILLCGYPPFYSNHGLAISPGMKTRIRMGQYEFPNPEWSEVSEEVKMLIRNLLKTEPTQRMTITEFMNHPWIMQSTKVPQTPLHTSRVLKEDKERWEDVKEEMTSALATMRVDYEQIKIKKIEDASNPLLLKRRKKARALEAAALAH
# PROTOCOL: MK2 kinase assay (Z'-LYTE kinase assay kit)
# MEASUREMENT_CONDITIONS: inhibition of MK2 biochemical activity; 90 min incubation at room temperature
pIC50: −log10 of the molar value.
Entries and their pIC50

>  <COMPOUND>
CN(C)C[C@H]1CCN1C(=O)c1ccc2c(c1)Cn1cc(-c3ccc(C#N)cc3)cc1-c1nccn1-2

>  <pIC50>
> 7.30

$$$$

Let's switch to this compound now.
Retrieve pIC50 on MAPKAPK2 Recombinant Human Protein (Homo sapiens, UniProt P49137); query `CN1CCN2C(=O)N(c3ccc4c(c3)Cn3cc(-c5ccc(C#N)cc5)cc3-c3nccn3-4)C[C@H]2C1`
> 7.30

###

# Test system: THP-1 cells
# PROTOCOL: THP-1 cell assay: LPS-stimulated pSer78-Hsp27 ELISA
# Assay type: cell-based
# MEASUREMENT_CONDITIONS: Homo sapiens, PMA-differentiated THP-1 cells, compound 60 min before 20 ng/mL LPS for 30 min
Entries and their IC50

As a guide, the following entries are already answered.
>  <COMPOUND>
C[C@H]1[C@@H](CN(C)C)OC(=O)N1c1ccc2c(c1)Cn1cc(-c3ccc(C#N)cc3)cc1-c1nccn1-2

>  <EXPERIMENTAL_SYSTEM>
THP-1 cells

>  <PROPERTY_LABEL>
IC50

>  <REPORTED_VALUE>
300 to 400 nM

$$$$
>  <COMPOUND>
CN(C)CC1CN(C(=O)c2ccc3c(c2)Cn2cc(-c4ccc(C#N)cc4)cc2-c2nccn2-3)C1

>  <EXPERIMENTAL_SYSTEM>
THP-1 cells

>  <PROPERTY_LABEL>
IC50

>  <REPORTED_VALUE>
500 to 1000 nM

$$$$
>  <COMPOUND>
CN(C)[C@H]1CCN(c2ccc3c(c2)Cn2cc(-c4ccc(C#N)cc4)cc2-c2nccn2-3)C1=O

>  <EXPERIMENTAL_SYSTEM>
THP-1 cells

>  <PROPERTY_LABEL>
IC50

>  <REPORTED_VALUE>
300 to 400 nM

$$$$

Retrieve IC50 on THP-1 cells; query `CN(C)C[C@@H]1CCN1C(=O)c1ccc2c(c1)Cn1cc(-c3ccc(C#N)cc3)cc1-c1nccn1-2`
< 50 nM

Retrieve IC50 on THP-1 cells; query `CN(C)C[C@@H]1CN(c2ccc3c(c2)Cn2cc(-c4ccc(C#N)cc4)cc2-c2nccn2-3)C(=O)N1C`
200 to 300 nM

Retrieve IC50 on THP-1 cells; query `CN1CC2(C1)CN(C(=O)c1ccc3c(c1)Cn1cc(-c4ccc(C#N)cc4)cc1-c1nccn1-3)C2`
200 to 300 nM

Retrieve IC50 on THP-1 cells; query CN(C)CC1CC12CCN(c1ccc3c(c1)Cn1cc(-c4ccc(C#N)cc4)cc1-c1nccn1-3)C2=O (centres unmarked)
100 to 200 nM

Retrieve IC50 on THP-1 cells; query `CN(C)C[C@H]1CC(=O)N(c2ccc3c(c2)Cn2cc(-c4ccc(C#N)cc4)cc2-c2ncnn2-3)C1`
100 to 200 nM

Retrieve IC50 on THP-1 cells; query `CC(C)(N)[C@@H]1CC(=O)N(c2ccc3c(c2)Cn2cc(-c4ccc(C#N)cc4)cc2-c2nccn2-3)C1`
300 to 400 nM

Retrieve IC50 on THP-1 cells; query `CNC[C@@H]1CN(c2ccc3c(c2)Cn2cc(-c4ccc(C#N)cc4)cc2-c2nccn2-3)C(=O)O1`
< 50 nM

Retrieve IC50 on THP-1 cells; query `CN1CC(NC(=O)c2ccc3c(c2)Cn2cc(-c4ccc(C#N)cc4)cc2-c2nccn2-3)C1`
500 to 1000 nM

Retrieve IC50 on THP-1 cells; query `[2H]C([2H])([2H])N(C[C@@H]1CCN1C(=O)c1ccc2c(c1)Cn1cc(-c3ccc(C#N)cc3)cc1-c1nccn1-2)C([2H])([2H])[2H]`
< 50 nM

Retrieve IC50 on THP-1 cells; query CN(C)CC[C@@H]1CCN(c2ccc3c(c2)Cn2cc(-c4ccc(C#N)cc4)cc2-c2nccn2-3)C1=O (single isomer, unassigned)
< 50 nM

Retrieve IC50 on THP-1 cells; query `CC(C)N1CC(NC(=O)c2ccc3c(c2)Cn2cc(-c4ccc(C#N)cc4)cc2-c2nccn2-3)C1`
500 to 1000 nM

###

# EXPERIMENTAL_SYSTEM: MAPKAPK2 Recombinant Human Protein (Homo sapiens)
# PROTOCOL: MK2 kinase assay (Z'-LYTE kinase assay kit)
# MEASUREMENT_CONDITIONS: inhibition of MK2 biochemical activity; 90 min incubation at room temperature
PROPERTY_LABEL: IC50

>  <COMPOUND>
N#Cc1ccc(-c2cc3n(c2)Cc2cc(NC(=O)C4CCNC4)ccc2-n2ccnc2-3)cc1 (stereo not shown) [Example 76]

>  <IC50>
< 50 nM

$$$$

Answer with the recorded IC50 for the compound listed here: CN(C)CC1CC12CCN(c1ccc3c(c1)Cn1cc(-c4ccc(C#N)cc4)cc1-c1nccn1-3)C2=O (stereo not shown) [Example 47]
< 50 nM

Answer with the recorded IC50 for the compound listed here: CN(C)CCn1cnn(-c2ccc3c(c2)Cn2cc(-c4ccc(C#N)cc4)cc2-c2nccn2-3)c1=O [Example 79]
50 to 100 nM

Answer with the recorded IC50 for the compound listed here: CN(C)CC[C@H]1CCN(c2ccc3c(c2)Cn2cc(-c4ccc(C#N)cc4)cc2-c2nccn2-3)C1=O (single isomer, unassigned) [Example 41]
< 50 nM

Answer with the recorded IC50 for the compound listed here: N#Cc1ccc(-c2cc3n(c2)Cc2cc(N4C[C@@H](CNC5COC5)CC4=O)ccc2-n2ccnc2-3)cc1 [Example 14]
50 to 100 nM

Answer with the recorded IC50 for the compound listed here: CN1CCC2(CC1)CN(C(=O)c1ccc3c(c1)Cn1cc(-c4ccc(C#N)cc4)cc1-c1nccn1-3)C2 [Example 131]
50 to 100 nM

Answer with the recorded IC50 for the compound listed here: CC(C)(N)[C@@H]1CC(=O)N(c2ccc3c(c2)Cn2cc(-c4ccc(C#N)cc4)cc2-c2nccn2-3)C1 [Example 53]
< 50 nM

###

# EXPERIMENTAL_SYSTEM: MAPKAPK2 Recombinant Human Protein (Homo sapiens)
# PROTOCOL: MK2 kinase assay (Z'-LYTE kinase assay kit)
# MEASUREMENT_CONDITIONS: inhibition of MK2 biochemical activity; 90 min incubation at room temperature
pIC50: −log10 of the molar value.
Entries and their pIC50

As a guide, the following entries are already answered.
>  <MOLECULE>
N#Cc1ccc(-c2cc3n(c2)Cc2cc(N4C[C@@H](CNC5(CO)CC5)CC4=O)ccc2-n2ccnc2-3)cc1

>  <REPORTED_VALUE>
7.00 to 7.30

$$$$
>  <MOLECULE>
CNC[C@H]1CC(=O)N(c2ccc3c(c2)Cn2cc(-c4ccc(C#N)cc4)cc2-c2nccn2-3)C1

>  <REPORTED_VALUE>
> 7.30

$$$$
>  <MOLECULE>
[2H]C([2H])([2H])N(C([2H])([2H])[2H])C([2H])([2H])C1CCN(c2ccc3c(c2)Cn2cc(-c4ccc(C#N)cc4)cc2-c2nccn2-3)C1=O (stereo not shown)

>  <REPORTED_VALUE>
> 7.30

$$$$
>  <MOLECULE>
N#Cc1ccc(-c2cc3n(c2)Cc2cc(N4C[C@@H](CN)CC4=O)ccc2-n2ccnc2-3)cc1

>  <REPORTED_VALUE>
> 7.30

$$$$
>  <MOLECULE>
CN(C)CC1CN(C(=O)c2ccc3c(c2)Cn2cc(-c4ccc(C#N)cc4)cc2-c2nccn2-3)C1

>  <REPORTED_VALUE>
7.00 to 7.30

$$$$
>  <MOLECULE>
N#Cc1ccc(-c2cc3n(c2)Cc2cc(N4CC5(CNC5)CC4=O)ccc2-n2ccnc2-3)cc1

>  <REPORTED_VALUE>
> 7.30

$$$$

Retrieve pIC50 on MAPKAPK2 Recombinant Human Protein (Homo sapiens); query `N#Cc1ccc(-c2cc3n(c2)Cc2cc(N4C[C@@H](CN5CC(F)C5)CC4=O)ccc2-n2ccnc2-3)cc1`
> 7.30
